# testDetails: A549 lung cancer cell viability effects, profiling panel, resazurin fluorescence, 24 h, PK04 Diversity Set (AID 1171); note: test concentration not given here
# conditionParameters: higher = more signal, called active from +8 up or from −8 down
Calls of active or inactive are those of the source.
measurementName: z-score

molecule: CC(C)=NOC(C)CN1CCCCc2nc(C)c(C)cc21 (stereo not drawn)
measurementName: z-score
measurement: -0.585 (inactive)
--
molecule: CC(C)=NO[C@H](C)c1cn([C@@H]2COC[C@H]2O)nn1
measurementName: z-score
measurement: -0.483 (inactive)
--
molecule: CCOC(=O)CCN1C(=O)[C@H]2[C@H]3[C@H](O)[C@H](O)CC(=NOCC(C)C)[C@@H]3CC[C@H]2C1=O
measurementName: z-score
measurement: -0.237 (inactive)
--
molecule: CCOC(=O)[C@H](Cc1ccccc1)NC(=O)CCC1CC(OC(=O)NCc2cccc3ccccc23)CC2(CCCC(COC(=O)NCc3ccc4c(c3)OCO4)O2)O1 (stereo partly drawn)
measurementName: z-score
measurement: -0.269 (inactive)
--
molecule: CC(C)[C@H](NC(=O)OC(C)(C)C)[C@@H](O)CC(=O)C(C)(C)C
measurementName: z-score
measurement: -0.242 (inactive)
--
molecule: CCOC(=O)[C@H](CC(C)C)NC(=O)CCC1CC(OC(=O)NCCc2ccc(F)cc2)CC2(CCCC(COC(=O)NCCCN3CCCC3=O)O2)O1 (stereo partly drawn)
measurementName: z-score
measurement: 0.601 (inactive)
--
molecule: COc1ccc(OC[C@H]2CN3[C@@H](CC[C@@H](C)[C@@H]3c3ccc(Br)cc3)C(=O)O2)cc1
measurementName: z-score
measurement: -0.914 (inactive)
--
molecule: O=C1C=C[C@@H](O)[C@@H]2[C@@H]3C(=O)N(Cc4ccccc4)C(=O)[C@@H]3CC[C@@H]12
measurementName: z-score
measurement: -0.754 (inactive)

* * *

# system: Follistatin-related protein 3 (Homo sapiens) (UniProt O95633)
# Sequence (O95633 whole entry, looked up): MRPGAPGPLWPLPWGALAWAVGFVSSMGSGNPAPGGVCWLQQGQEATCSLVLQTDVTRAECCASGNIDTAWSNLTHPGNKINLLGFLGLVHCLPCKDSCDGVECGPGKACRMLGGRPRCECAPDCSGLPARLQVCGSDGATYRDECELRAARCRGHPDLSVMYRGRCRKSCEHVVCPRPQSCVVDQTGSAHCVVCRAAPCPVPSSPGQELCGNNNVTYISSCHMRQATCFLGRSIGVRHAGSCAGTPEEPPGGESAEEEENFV
# testDetails: FSTL3 binders on small-molecule microarrays, primary screen, biochemical, small-molecule microarray, 635 nm fluorescence (AID 1105);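 note: score merges emission near 667 nm and signal to noise per printed spot across three slides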
# conditionParameters: FSTL3 binding, higher = more signal
Recorded composite z-score by entry
measurementName: composite z-score

compound: CO[C@@H]1[C@H](O)CO[C@H]1C=Cc1ccccc1
measurement: 0.211
//
compound: COC(=O)[C@@H]1CC[C@H](C)[C@@H](c2ccc(C)cc2)N1C(=O)c1ccc(C=NO[C@@H](C)c2cc(-c3c(C)cc(C)cc3C)no2)cc1
measurement: 0.242
//
compound: Cc1cc2c(nc1C)CCCCN2CC(O)CN1CCCc2nc(-c3ccc(Br)cc3)ccc21 (stereo not drawn)
measurement: 1.21
//
compound: CCN1C(=O)[C@H]2[C@H]3[C@H](O)[C@H](O)CC(=NOCC[C@@H]4C=C[C@H](OC(C)=O)[C@@H](COC(C)=O)O4)[C@@H]3CC[C@H]2C1=O
measurement: 0.38
//
compound: CCOC(=O)[C@H](CC(C)C)NC(=O)CCC1CC(OC(=O)NCCc2ccc(F)cc2)CC2(CCCC(COC(=O)NCCOC)O2)O1 (stereo partly drawn)
measurement: 1.36
//
compound: O=C1C2=CC[C@H]3C(=O)N(C[C@@H]4CCCO4)C(=O)[C@H]3[C@H]2[C@H](O)[C@@H]2O[C@H]12
measurement: -0.191
//
compound: CCN1C(=O)[C@H]2[C@H]3[C@H](O)[C@H](O)CC(=NOCC(C)C)[C@H]3CC[C@H]2C1=O
measurement: 0.732
//
compound: CCOC(=O)[C@H](Cc1ccccc1)NC(=O)CCC1CC(OC(=O)NCc2cccc3ccccc23)CC2(CCCC(COC(=O)NCC3CCCCC3)O2)O1 (stereo partly drawn)
measurement: 0.872

* * *

# system: Albumin (Bos taurus)
# testDetails: bovine serum albumin binders on microarray, profiling panel, artefact control for SMM control protein annotation, biochemical, small-molecule microarray, Alexa647 label, 635/667 nm fluorescence (AID 1118);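 note: score merges 667 nm emission intensity and signal-to-noise per printed compound spot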
# conditionParameters: BSA-A647 binding, fluorescence 635 nm, higher = more signal
Recorded composite z-score by entry

molecule: CC(=O)OC[C@H]1O[C@@H](ON=C(C)C)[C@H](OC(C)=O)[C@@H](OC(C)=O)[C@@H]1OC(C)=O
composite z-score: -0.727

molecule: COC(=O)CC=C1c2ccccc2[C@H](OC)[C@H]1C
composite z-score: -0.8

molecule: CC(=O)OC[C@H]1O[C@@H](ON=C(C)CCC(=O)OC[C@H]2O[C@H](C#Cc3ccccc3)C=C[C@@H]2Oc2ccc(C)cc2)[C@H](OC(C)=O)[C@@H](OC(C)=O)[C@@H]1OC(C)=O
composite z-score: 0.635

molecule: CO[C@@H]1COC(=O)CC=C[C@H](C)[C@H](OC)COC(=O)[C@@H]2CCCN2C(=O)CC=C[C@H]1C
composite z-score: -0.568

molecule: CC(C)=NO[C@@H](C)c1cn([C@H](CO)Cc2ccccc2)nn1
composite z-score: 0.015

molecule: COC(=O)CC=C[C@@H](C)[C@@H](C=NOC[C@@H](C)[C@H](OCc1ccccc1)C(C)C)OC
composite z-score: -0.469

molecule: CC(CCC(=O)OC[C@H]1O[C@H](C#Cc2ccccc2)C=C[C@@H]1Oc1ccc(C)cc1)=NO[C@H](C)c1cn([C@@H]2COC[C@H]2O)nn1
composite z-score: -0.115

molecule: COC(=O)CC=C[C@@H](C)[C@@H](C=NOC[C@@H](O)COCc1ccco1)NS(=O)(=O)c1ccc(C)cc1
composite z-score: -1.17

molecule: CC=CC1=C(CO)[C@H](O)[C@H]2O[C@H]2[C@@H]1O
composite z-score: -0.0712

molecule: COc1ccc(COC(=O)NN=C2C[C@@H](O)[C@@H](O)[C@@H]3[C@@H]4C(=O)N(C[C@@H]5CCCO5)C(=O)[C@@H]4CC[C@@H]23)cc1
composite z-score: 0.0566

molecule: CC(CCC(=O)OC[C@H]1O[C@H](C#Cc2ccccc2)C=C[C@@H]1Oc1ccc(C)cc1)=NO[C@@H](C)c1cc(-c2c(C)cc(C)cc2C)no1
composite z-score: 0.363

molecule: COC(=O)CC=C[C@@H](C)[C@@H](C=NOC(C)CN1CCCCc2nc(C)c(C)cc21)NS(=O)(=O)c1ccc(C)cc1 (stereo not given in full)
composite z-score: -0.636

molecule: COC(=O)[C@H](C)NC(=O)CCC1CC(OC(=O)NCCc2ccc(F)cc2)CC2(CCCC(COC(=O)NCc3ccccc3)O2)O1 (stereo not given in full)
composite z-score: 0.431

molecule: CCN1C(=O)[C@H]2[C@H]3[C@H](O)[C@H](O)CC(=NO[C@@H]4O[C@H](COC(C)=O)[C@@H](OC(C)=O)[C@H](OC(C)=O)[C@H]4OC(C)=O)[C@@H]3CC[C@H]2C1=O
composite z-score: 0.646

molecule: O=C1CCCC=C1C(O)C1CCCCC1 (stereo not given)
composite z-score: -0.0548

* * *

# system: Neurogenic locus notch homolog protein 2 (Homo sapiens)
# testDetails: Notch2 binders on small-molecule microarrays, primary screen, biochemical, small-molecule microarray, 635 nm fluorescence, stem cell growth factors (AID 1073)
# conditionParameters: Notch2 binding, higher = more signal

compound: O=C1CCCC=C1C(O)C1CCCCC1 (stereo not given)
composite z-score: -0.0306

compound: CC(CCN1CCc2nc(-c3ccccc3)c(-c3ccccc3)cc2C1)=NO[C@H](C)c1cn([C@H](CO)Cc2ccccc2)nn1
composite z-score: -0.54

compound: COC(=O)CC=C[C@@H](C)[C@@H](C=NOC[C@@H](C)[C@H](OCc1ccccc1)C(C)C)NS(=O)(=O)c1ccc(C)cc1
composite z-score: -0.801

compound: COc1cccc([C@H]2Oc3ccc(OC)cc3C(=NO[C@@H](C)c3cc(-c4c(C)cc(C)cc4C)no3)[C@@H]2O)c1
composite z-score: -2.2

compound: COC(=O)CC=C[C@@H](C)[C@@H](C=NOC[C@@H](O)COCc1ccco1)NS(=O)(=O)c1ccc(C)cc1
composite z-score: -0.572

* * *

# testDetails: small-molecule microarray binders of probe aShh, primary screen, biochemical, biotinylated probe, 635/667 nm fluorescence (AID 1114);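 note: probe is biotin-labelled aShh protein from a stem cell growth factor screen; measures binding of labelled protein to compounds printed on the slide; score merges feature fluorescence at 667 nm with signal-to-noise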
# conditionParameters: higher = more signal
Recorded composite z-score by entry
measurementName: composite z-score

molecule: C[C@@H]1C=CCC(=O)OC[C@H](C)C(=O)N[C@@H](Cc2ccccc2)C(=O)OC1
measurement: -0.414
--
molecule: O=C1[C@H]2[C@H]3[C@H](O)[C@H](O)CC(=NOC[C@@H](O)COCc4ccco4)[C@@H]3CC[C@H]2C(=O)N1c1cccc(Oc2ccccc2)c1
measurement: -0.289
--
molecule: CC(=O)OC[C@H]1O[C@@H](ON=C2[C@H]3CCn4c(=O)n(-c5ccccc5)c(=O)n4[C@H]3[C@H](O)[C@@H]3O[C@H]23)[C@H](OC(C)=O)[C@@H](OC(C)=O)[C@@H]1OC(C)=O
measurement: 0.0902
--
molecule: COC(=O)CC=C[C@@H](C)[C@@H](C=NOC[C@@H](O)COCc1ccco1)OC
measurement: -0.243
--
molecule: C=C(C)C(=O)OC[C@H]1CN2[C@@H](CC[C@@H](C)[C@@H]2c2ccc(Br)cc2)C(=O)O1
measurement: -0.0553
--
molecule: CCOC(=O)[C@H](Cc1ccccc1)NC(=O)CCC1CC(OC(=O)NCc2ccc3c(c2)OCO3)CC2(CCCC(COC(=O)NCCOc3ccccc3)O2)O1 (some centres not stated)
measurement: -0.223
--
molecule: CCOC(=O)[C@H](Cc1ccccc1)NC(=O)CCC1CC(OC(=O)NCCc2ccc(F)cc2)CC2(CCCC(COC(=O)NCCC(C)C)O2)O1 (some centres not stated)
measurement: -0.253
